The reported measurements were obtained from patent US5866567A.

Measured target: Human GnRH receptor (Homo sapiens, UniProt P30968)
Sequence (P30968 1-328): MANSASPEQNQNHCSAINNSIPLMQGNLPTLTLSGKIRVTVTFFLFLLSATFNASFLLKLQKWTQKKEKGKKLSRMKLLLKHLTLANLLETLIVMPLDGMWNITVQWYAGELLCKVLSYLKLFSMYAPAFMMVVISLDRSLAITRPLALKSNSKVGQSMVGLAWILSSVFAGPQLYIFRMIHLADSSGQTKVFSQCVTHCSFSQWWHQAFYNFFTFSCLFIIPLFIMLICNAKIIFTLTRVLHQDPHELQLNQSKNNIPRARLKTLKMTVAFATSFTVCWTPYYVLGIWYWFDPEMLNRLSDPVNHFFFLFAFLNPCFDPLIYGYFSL
The reader will find reported log10 of IC50 values listed item by item below.
Remember, log10 of IC50, in µM.

O=C(Nc1ccc(CN2C(=O)[C@H]3CCC[C@H]3N(C(=O)CN3C(=O)C4=C(CCCC4)C3=O)c3ccccc32)cc1)OCc1ccccc1 (relative stereo) = -1.15

Lookup: Item O=C(CCc1ccccc1)Nc1ccc(CN2C(=O)[C@H]3CCC[C@H]3N(C(=O)CN3C(=O)c4ccccc4C3=O)c3ccccc32)cc1 (relative stereo) has what recorded log10 of IC50?
Found: -0.30

Lookup: Given the entry O=C(Nc1ccc(CN2C(=O)[C@H]3CCC[C@H]3N(C(=O)CN3C(=O)c4ccccc4C3=O)c3ccccc32)cc1)c1ccc(Br)cc1 (relative stereo) , report its measured log10 of IC50.
Found: -0.52

Lookup: Record request: log10 of IC50 value, item O=C(NCc1ccccc1)Nc1ccc(CN2C(=O)[C@H]3CCC[C@H]3N(C(=O)CN3C(=O)c4ccccc4C3=O)c3ccccc32)cc1 (relative stereo)
Found: -1.52

Lookup: Request the reported log10 of IC50 associated with COc1ccc(C(=O)Nc2ccc(CN3C(=O)[C@H]4CCC[C@H]4N(C(=O)CN4C(=O)c5ccccc5C4=O)c4ccccc43)cc2)cc1 (relative stereo)
Found: -0.70

###

Measured target: Human GnRH receptor (Homo sapiens)
pIC50: −log10 of the molar value.
Use 7 as the dividing line for pIC50, with the line itself on the 1 (yes) side and lower values as 0 (no).

O=C(NCCc1ccccc1)Nc1ccc(CN2C(=O)[C@H]3CCC[C@H]3N(C(=O)CN3C(=O)c4ccccc4C3=O)c3ccccc32)cc1 (relative stereo) [Example 30] = 1 (yes)
COc1ccc(CNC(=O)Nc2ccc(CN3C(=O)[C@H]4CCC[C@H]4N(C(=O)CN4C(=O)c5ccccc5C4=O)c4ccccc43)cc2)cc1 (relative stereo) [Example 32] = 1 (yes)
O=C(Nc1ccc(CN2C(=O)[C@H]3CCC[C@H]3N(C(=O)CN3C(=O)c4ccccc4C3=O)c3ccccc32)cc1)c1ccccc1 (relative stereo) [Example 7] = 0 (no)

Lookup: Record C[C@H](NC(=O)Nc1ccc(CN2C(=O)[C@H]3CCC[C@H]3N(C(=O)CN3C(=O)c4ccccc4C3=O)c3ccccc32)cc1)c1ccccc1 (relative stereo) [Example 28] ; criterion: pIC50 no lower than 7. Met?
Found: 0 (no)

Lookup: Please tell me: is the compound O=C(Nc1ccc(CN2C(=O)[C@H]3CCC[C@H]3N(C(=O)CN3C(=O)c4ccccc4C3=O)c3ccccc32)cc1)c1cccc(F)c1 (relative stereo) [Example 9] at or over 7 in terms of pIC50?
Found: 0 (no)

Lookup: Check if pIC50 >= 7 (inclusive). Item: O=C(NCc1ccc(F)cc1)Nc1ccc(CN2C(=O)[C@H]3CCC[C@H]3N(C(=O)CN3C(=O)c4ccccc4C3=O)c3ccccc32)cc1 (relative stereo) [Example 31]
Found: 1 (yes)

Lookup: Determine whether this compound has pIC50 no lower than 7: CCC(=O)Nc1ccc(CN2C(=O)[C@H]3CCC[C@H]3N(C(=O)CN3C(=O)c4ccccc4C3=O)c3ccccc32)cc1 (relative stereo) [Example 6]
Found: 0 (no)

Lookup: Tell me whether pIC50 is at least 7 here: O=C(NCc1ccccc1)Nc1ccc(CN2C(=O)[C@H]3CCC[C@H]3N(C(=O)CN3C(=O)C4=C(CCCC4)C3=O)c3ccccc32)cc1 (relative stereo) [Example 26]
Found: 1 (yes)

Lookup: // inclusive: pIC50 at least 7? input: O=C(Nc1ccc(CN2C(=O)[C@H]3CCC[C@H]3N(C(=O)CN3C(=O)c4ccccc4C3=O)c3ccccc32)cc1)c1ccccc1F (relative stereo) [Example 8]
Found: 0 (no)

Lookup: Check the entry C[C@@H](NC(=O)Nc1ccc(CN2C(=O)[C@H]3CCC[C@H]3N(C(=O)CN3C(=O)c4ccccc4C3=O)c3ccccc32)cc1)c1ccccc1 (relative stereo) [Example 27] : does pIC50 equal or exceed 7?
Found: 1 (yes)

Lookup: Reported pIC50 reaches at least 7 for COc1cccc(C(=O)Nc2ccc(CN3C(=O)[C@H]4CCC[C@H]4N(C(=O)CN4C(=O)c5ccccc5C4=O)c4ccccc43)cc2)c1 (relative stereo) [Example 14] ?
Found: 0 (no)
